- Test system: A498 renal
- experimental protocol: NCI-60 one-dose screen, 48 h
- study conditions: 10 µM unless noted
This is part of a sample that, as a whole, favours compounds with a hit. Of some 83,000 tested, about 20% had one in any assay. The source made the active and inactive calls. Rule for the calls: active = growth percent below 10; inactive = the rest.
Labels: yes (1) for active, no (0) for inactive

[[record]]
compound = "Cc1cc(=O)n(C(=S)Nc2ccc(Cl)cc2)c2cc(O)ccc12"
study_target = "A498 renal"
cat = "no (0)"

[[record]]
compound = "CCOC(=O)C/C(=N\\Nc1cc(=O)[nH]c2ccc(C)cc12)C(=O)OCC"
study_target = "A498 renal"
cat = "no (0)"

[[record]]
compound = "COC(=O)[C@@]12CC=C(C)[C@]3(C[C@H](c4ccoc4)OC3=O)[C@H]1C=C[C@@H](O)[C@@]2(O)C(=O)OC"
study_target = "A498 renal"
cat = "no (0)"

[[record]]
compound = "Cc1ccc(C)c2c1sc1nc(N3CCOCC3)c(C#N)c(=O)n12"
study_target = "A498 renal"
cat = "no (0)"

[[record]]
compound = "Nc1cc(-c2ccc(Cl)cc2)nn1-c1nnc(/C=C/c2ccco2)c(=O)[nH]1"
study_target = "A498 renal"
cat = "no (0)"

[[record]]
compound = "COC(=O)c1c2c(c[n+]([O-])c1C)C(=O)C=C(NCc1ccccc1)C2=O"
study_target = "A498 renal"
cat = "yes (1)"

[[record]]
compound = "CCN(CC)CCOc1ccc(C(=O)/C=C\\c2ccc(Cl)cc2Cl)cc1"
study_target = "A498 renal"
cat = "no (0)"

[[record]]
compound = "Cc1cc(O)c(=O)cc2c1C[C@H]1CC(C)(C)/C=C/C[C@]3(C)Oc4cc(=O)c(O)cc(C)c4C[C@H]3C[C@H](O)[C@@]1(C)O2"
study_target = "A498 renal"
cat = "no (0)"

[[record]]
compound = "COC(=O)/C=C1/SC(=NCc2ccccc2)N(CCc2c[nH]c3ccccc23)C1=O"
study_target = "A498 renal"
cat = "no (0)"

[[record]]
compound = "Cc1cccc(N=Nc2cccc(C)c2)c1"
study_target = "A498 renal"
cat = "no (0)"

[[record]]
compound = "CN(C)c1ccc(/C=N\\NC(=O)c2ccc3nc(-c4ccc(Cl)cc4)[nH]c3c2)cc1"
study_target = "A498 renal"
cat = "no (0)"

[[record]]
compound = "Cc1ccc(NC(=O)c2cc3ccccc3cc2O)c(C)c1"
study_target = "A498 renal"
cat = "no (0)"

[[record]]
compound = "CC1(/C=C/c2ccc(-c3ccccc3)cc2)CCn2cnc3ncnc(c32)N1O (stereo not given)"
study_target = "A498 renal"
cat = "no (0)"

[[record]]
compound = "CC(C)NS(=O)(=O)/N=C1\\NC(=O)NC1=C(Cl)Cl"
study_target = "A498 renal"
cat = "no (0)"

[[record]]
compound = "CCN(CC)CCCC(Cc1ccccc1)Nc1c2ccc(Cl)cc2nc2ccc(OC)cc12 (stereo not given)"
study_target = "A498 renal"
cat = "no (0)"

[[record]]
compound = "Cc1[nH]n(-c2cccc(Cl)c2)c(=O)c1/C=C1\\C=c2ccccc2=CC1=O"
study_target = "A498 renal"
cat = "no (0)"

[[record]]
compound = "O=C(NCCCCCCNC(=O)OCc1ccc2c(Cl)cc(Cl)c(O)c2n1)OCc1ccc2c(Cl)cc(Cl)c(O)c2n1"
study_target = "A498 renal"
cat = "no (0)"

[[record]]
compound = "O=C(C[C@]1(O)C(=O)Nc2ccc(Br)cc21)c1ccco1"
study_target = "A498 renal"
cat = "no (0)"

[[record]]
compound = "O=C(/C=C/c1ccccc1)c1ccc(-n2cc(CN3CCN(c4cc5c(cc4F)c(=O)c(C(=O)O)cn5C4CC4)CC3)nn2)cc1"
study_target = "A498 renal"
cat = "no (0)"

[[record]]
compound = "O=C(/C=C/c1ccccc1)N(C1CCCCC1)C1CCCCC1"
study_target = "A498 renal"
cat = "no (0)"

